experiment: label from the status in PepcDB records
recorded metric: protein production

MQIKAGLIWMNGAFVPQEEAKTSVLSHALHYGTSVFEGIRAYETAKGPAIFRLKEHVKRFYNSAKVLRMEIPFAPEELEEAIKEVVRRNGYRSCYIRPLAWMGAKALGVNPLPNNPAEVMVAAWEWGAYLGEEAVRKGARLITSSWARFPANVMPGKAKVGGNYVNSALAKMEAVAAGADEALLLDEEGYVAEGSGENLFFVRDGVIYALEHSVNLEGITRDSVIRIAKDLGYEVQVVRATRDQLYMADEVFMTGTAAEVTPVSMIDWRPIGKGTAGPVALRLREVYLEAVTGRRPEYEGWLTYVNGQ ... not failed
GTVSATSPNKCKRPMNAFMLFAKKYRVEYTQMYPGKDNRAISVILGDRWKKMKNEERRMYTLEAKALAEEQKRLNPDCWK ... not failed
MMYPYVRLFMEMRRARRLDPLPVLGTHRSSHRCLPWDLAPWRELNNGRTLTLFDLGRAPLLVRTGMQRICSEKGWGMTVAGSSVRYRRRVVLMERLEMVSRCLGWDGRFFYMEQSLWRKGDCTSHMLLRAATTTGSGIVPPAEVAAALGAGESPPLPDWAQAWIEADALRPWPPAALEHHHHHH ... failed
HPMCKEHEDEKINIYCLTCEVPTCSMCKVFGIHKACEVAPLQSVFQGQKTE ... not failed
MSTDSDTTPDTEEAREQLIDLAADFYDQFADGEVPTMTIPTRTKSNIVFDEDEQVWVYGDRNSTRSAKTISGAEKILKAVYTIDFLSQQLEEDRSSTLRELYYLSESWDLDEAQFNTQDESNNLIEDLEIVSDVKREDFHMRPEESGAKVMGPLLLREQTNRGDREIHCQDDVGQGGYQIPNNPDTIEFLDNDAKFVLCVETGGMRDRLVENGFDDEYDALVVHLGGQPARATRRLIKRLHDELDLPVTVFTDGDPWSYRIFGSVSYGSIKSAHLSEYLATPEAQFIGIRPEDIVEYELPTDPLSDSDVNALESELEDPRFQTDFWEEQIELQLDINKKAEQQALASRGLDFVTETYLPERLDEMGIL ... failed
MKAGLIMRHDVMSILHAFCMIAENHSFTRAAAQLHISTSALSQNMRQLEDELGVKLLNRTTRRVGLTEAGHAFLASIRPALAHIDEAMEHARQSRDIPGGTLRLTVPRTAATLLLQPNLAGFMRDYPDIRLDIDVNDGFVDLINERFDAGIRFGDAVQLDMNVVPLGDVLRPAIVASPAYLARFGTPLHPQELINHRCLCHRFTRESGLYRWEFVHGAQRLEITPEAALMVNDKALRLSAARDGAGLTYVFEQDVHEDLQDGRLCSVLEEWLPAADRFYLYYPGRAHMAPKLRVFIDYFCHKAILPSQQSHHR ... failed

Field: next sequence
INPUT: For `ALSGSSGYKFGVLAKIVNYMKTRHQRGDTHPLTLDEILDETQHLDIGLKQKQWLMTEALVNNPKIEVIDGKYAFKPKYNVR` , write its protein production.
OUTPUT: not failed

---

assay: label from the status in PepcDB records
recorded metric: protein production

# example entries with known answers
MVRLAEERDFPGFLGLAGQVEHWFGPMVEDAGFHEAVREHIRRGAALVAVAPDPDTDAGPGAGTGTELLGGLLFGTDTDADAPVHHVHWLVVSRQARAGGVGRALMRDAMRRWVREPAGVEVVTFGADHPGATESGARAFYERLGFTPAEVVAPGPEGGSRQLFRRGAQVRPTRGEHVTTYTGGPA ... failed
GEVVLKMKVEGMTCHSCTSTIEGKIGKLQGVQRIKVSLDNQEATIVYQPHLISVEEMKKQIEAMGFPAFVKKIEGR ... not failed
MEFSLIADTVTVCTAKQGIAFGKSLLQRLDLANHISFADSVVDHQSPGGGIVQASAIIFPVDAIAPPPVRSSSYKTIRRIRKKRRTRRVSFGGDGDDAGDFGRFLLEGDFGGSDGPFGFGGGGNDGGGKGWNYGGGGGGFGRDNWDGSSFSSWSDPAMEFVYEVICWIALSNCVHFAFKRIVRIVTDGEREKLNIALSPVC ... failed
MTDSTTELTPAAPVSWPDGKTCAVAFTFDVDAESPLLTTDPAFADRMGTMSHQAYGPLVGVPRLLGILDEFNVPGTFFVPGYTAHRHPEPIRSIARAGHEIAHHGYLHESLVGADEDTERKILTRGIEALEEVAGVHPVGYRAPMWEMNWHTPKLLAEFGFLYDSTLMDSDHPYELAVGDGSLVELPVSWALDDWQQYCFVPDFSGTGLIETPAKAIELWRAELNAMRDIGGAWVLTNHPFLSGRPGRAAALREFIAEVCAMDDVWVAGMSQIAEHVRAQKLTPRTLTRPELTPVAE ... not failed
MIDVLVQLKSEELILKQRVITAVVALIIFIPIVFLGGTLIEIAALALAVVAMSEVLIMKRILLVTPEAIISILGTLFLVAPKSWMHDLPSQINTPFVSLIFAIALMVRVVFSKNRFNFDDAGVLTLTMLYIGFGFNMFVQARTVGLGMLMYLLLTVWSTDSGAYLVGRKIGKTKLAPQISPNKTWEGSIGGTIVAVIVGIIFSVTGLIHYGILATILMTLFLSIAGQLGDLVESSLKRYYGVKDSGRILPGHGGILDRFDSLLLVLPMAYLLGLL ... failed

INPUT: Recall and state the measured protein production for `MSHTKPSIAILGAGRVGSSLARSAVAAGYEVKVAGSGAVDKIALTAEILMPGAVPSTADQAVKDADIVFLAVPLHKFRSVNPATLEGKIVIDTMNHWVPVNGELEEIDQDPRSTSEIIAEFFAGSTMVKSFNHIGYHEIEQDAGTGRAIAYATDDVDAGAQVAQLIKSFGFVPLNIGALENGRILEPGQEAFGAHLNKDSRLELVNQR` .
OUTPUT: failed

INPUT: # return recorded protein production for input `MSMLANFDFASFFAVAAAIVIGLYVVLDGFDLGVGILFPFAPRVSDRDAMMATLEPFWDGNETWLVLGGMVLLGAFPLAFAILLPAFYVPLCLMLFGLVIRGVAFEFRSQGGRFQIVWSATFAAGSFIAAFCQGAVLGAFVGRSITVSDGAFAGGPFDWLGLFSIATGLGVVAAYGLLGACWLVWKTSGSTQNFGRELMLPTLLCAGAAIVLISVWTPFAKPQIAERWFAWPDALLLAPLPIIAVLAGIGILLTRWSEREWAPLALSLLLFVTSLAGLGASVWPEAIPGVMTIWQASSMHRTQVIVAGAVVIIGPIILAYIGYGYWLFRGKTKPVPEFPPR`
OUTPUT: failed
